# PROTOCOL TEXT: Acute toxicity (LD 50%, semi-logarithmic technique of Lichfield and Wilcoxon)
# Type: in vivo
# CONDITION: in vivo; intravenous route; read-out: LD50, intravenous route
Counter-ions that a name gives are not always drawn.
QUANTITY NAME: LD50 (mg/kg)

COMPOUND	UNIT OF MEASURE	DATA VALUE
CCCN(CCC)CC(O)CN(C)c1nc(-c2ccccc2)no1 (centres unmarked) [Example 9, fumarate hydrate]	mg/kg	50
CCN(CC)CC(O)CN(CC)c1nc(-c2ccccc2)no1 (centres unmarked)	mg/kg	18
CCN(CC)CC(O)CN(C)c1nc(-c2ccncc2)no1 (centres unmarked)	mg/kg	100
CCN(CC)CC(O)CNc1nc(-c2ccccc2)no1 (centres unmarked)	mg/kg	55
CCN(CC)CC(O)CN(C)c1nc(-c2ccccc2)no1 (centres unmarked) [Example 1, fumarate hydrate]	mg/kg	30

----------
# PROTOCOL TEXT: Acute toxicity (LD 50%, semi-logarithmic technique of Lichfield and Wilcoxon)
# Format: in vivo
# CONDITION: in vivo; oral route; read-out: LD50, oral route
Structures can show the parent of a compound that is named as a salt.

MOLECULE	UNIT OF MEASURE	LD50
CCN(CC)CC(O)CNc1nc(-c2ccc(F)cc2)no1 (centres unmarked) [Example 4, fumarate]	mg/kg	750
CCCN(CC(O)CN(CC)CC)c1nc(-c2ccccc2)no1 (centres unmarked) [Example 7, fumarate hydrate]	mg/kg	250
CCN(CC)CC(O)CNc1nc(-c2ccccc2)no1 (centres unmarked)	mg/kg	700
CCN(CC)CC(O)CN(C)c1nc(-c2ccccc2)no1 (centres unmarked) [Example 1, fumarate hydrate]	mg/kg	280
CCCN(CCC)CC(O)CN(C)c1nc(-c2ccccc2)no1 (centres unmarked) [Example 9, fumarate hydrate]	mg/kg	250
CCN(CC)CC(O)CN(CC)c1nc(-c2ccccc2)no1 (centres unmarked)	mg/kg	200
CCN(CC)CC(O)CN(C)c1nc(-c2ccncc2)no1 (centres unmarked)	mg/kg	750
CN1CCN(CC(O)CNc2nc(-c3ccccc3)no2)CC1 (centres unmarked)	mg/kg	750

This collection of values is drawn from patent US4089966A.
